Data credit: patent US11739098B2

# reported IC50; entries follow
- measured.target: human TLR8 (Homo sapiens, UniProt Q9NR97)
- Sequence (Q9NR97 27-1041): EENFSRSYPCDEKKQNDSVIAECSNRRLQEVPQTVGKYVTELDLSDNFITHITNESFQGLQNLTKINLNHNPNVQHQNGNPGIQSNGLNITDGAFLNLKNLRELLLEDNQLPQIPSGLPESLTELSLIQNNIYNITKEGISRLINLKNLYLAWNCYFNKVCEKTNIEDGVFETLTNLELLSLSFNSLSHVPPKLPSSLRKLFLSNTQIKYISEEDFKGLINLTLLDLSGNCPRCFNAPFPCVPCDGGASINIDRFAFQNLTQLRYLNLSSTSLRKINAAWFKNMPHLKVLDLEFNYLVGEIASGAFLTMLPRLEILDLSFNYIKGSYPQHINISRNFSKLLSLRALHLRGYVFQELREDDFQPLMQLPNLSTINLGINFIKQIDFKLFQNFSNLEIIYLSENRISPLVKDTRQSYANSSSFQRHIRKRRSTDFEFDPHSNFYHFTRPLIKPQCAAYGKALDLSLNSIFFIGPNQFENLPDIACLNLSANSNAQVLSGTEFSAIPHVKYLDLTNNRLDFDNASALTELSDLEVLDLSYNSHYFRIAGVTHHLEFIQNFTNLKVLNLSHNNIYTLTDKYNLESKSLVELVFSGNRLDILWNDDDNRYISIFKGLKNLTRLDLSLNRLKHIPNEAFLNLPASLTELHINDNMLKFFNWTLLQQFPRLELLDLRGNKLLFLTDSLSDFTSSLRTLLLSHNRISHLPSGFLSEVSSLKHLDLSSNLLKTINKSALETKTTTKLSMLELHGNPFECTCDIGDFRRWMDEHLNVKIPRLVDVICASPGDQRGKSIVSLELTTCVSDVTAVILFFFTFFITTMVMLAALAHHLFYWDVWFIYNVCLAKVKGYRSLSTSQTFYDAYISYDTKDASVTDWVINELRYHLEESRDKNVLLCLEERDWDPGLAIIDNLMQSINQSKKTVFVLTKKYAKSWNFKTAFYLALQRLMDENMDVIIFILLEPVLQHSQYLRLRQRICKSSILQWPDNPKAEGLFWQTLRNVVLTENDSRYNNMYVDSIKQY
- test.name: TLR8 inhibition reporter assay (HEK-Blue cells, SEAP reporter, R848 stimulation)
- condition.info: HEK-Blue cells overexpressing human TLR8, SEAP reporter, R848 15.9 μM

Worked examples follow.
INSERT INTO results (molecule, measured_endpoint, result) VALUES
  ('CC(C)c1c(-c2ccnc3[nH]ncc23)[nH]c2ccc(C3CCN(C(=O)c4cc[nH]n4)CC3)cc12', 'IC50', '100 to 1000 nM'),
  ('CC(C)c1c(-c2ccnc3[nH]ncc23)[nH]c2ccc(C3CCN(Cc4cnccn4)CC3)cc12', 'IC50', '< 100 nM'),
  ('COc1c[nH]c2nccc(-c3[nH]c4ccc(C5CCNCC5)cc4c3C)c12', 'IC50', '100 to 1000 nM'),
  ('CC(C)c1c(-c2cnc3ncnn3c2)[nH]c2ccc(C3CCN(CC(=O)N(C)C)CC3)cc12', 'IC50', '100 to 1000 nM'),
  ('Cc1cc(-c2[nH]c3ccc(C4CCN(C(=O)C[C@H](C)O)CC4)cc3c2C(C)C)cn2nnnc12', 'IC50', '< 100 nM');

[Q] # IC50 lookup, item CC(C)c1c(-c2ccc3nccn3c2)[nH]c2ccc(C3CCNCC3)c(F)c12
[A] < 100 nM

[Q] For CC(C)c1c(-c2nc3cnccn3n2)[nH]c2ccc(C3CCNCC3)cc12 then?
[A] < 100 nM

[Q] Param item: COCC(CO)N1CCC(c2ccc3[nH]c(-c4cc(C)n5ccnc5c4)c(C(C)C)c3c2)CC1 (centres unmarked)
[A] 100 to 1000 nM

[Q] Now the same for CCc1c(-c2cnnc3[nH]ccc23)[nH]c2ccc(C3CCNCC3)cc12
[A] 100 to 1000 nM

[Q] Another: CCc1c(-c2cnc3[nH]ncc3c2)[nH]c2ccc(C3CCN(C4CCN(C(C)C)CC4)CC3)cc12
[A] < 100 nM

[Q] Repeat with CC(C)c1c(-c2cnc3ccnn3c2)[nH]c2ccc(C3CCN(CC(=O)N(C)C)CC3)cc12
[A] > 3130 nM

[Q] Now give it for CCc1c(-c2ccnc3[nH]ncc23)[nH]c2ccc(C3CCNCC3F)cc12 (centres unmarked) [Example 173] too.
[A] < 100 nM

[Q] And for CC(C)c1c(-c2cn(C)c3ncccc23)[nH]c2ccc(C3CCN(CC(N)=O)CC3)cc12 ?
[A] < 100 nM

[Q] Same again, this time with Cc1cc(-c2[nH]c3ccc(C4CCNCC4)cc3c2C(C)C)c(C)n2nnnc12
[A] < 100 nM

[Q] CC(C)c1c(-c2ccnc3cn[nH]c23)[nH]c2ccc(C3CCNCC3)cc12 , same question.
[A] < 100 nM

[Q] Now the same for CNCCN1CCC(c2ccc3[nH]c(-c4cccc5cccnc45)c(C)c3c2)CC1
[A] > 3130 nM

[Q] Next up: Cc1cc2cc(-c3[nH]c4ccc(C5CCN(CC(=O)N(C)C)CC5)cc4c3C(C)C)ccn2n1
[A] 1000 to 50000 nM
